Recorded IC50 values (UniProt P22303) are given below.
Sequence (P22303 32-617 isoform P22303-2 limits assumed): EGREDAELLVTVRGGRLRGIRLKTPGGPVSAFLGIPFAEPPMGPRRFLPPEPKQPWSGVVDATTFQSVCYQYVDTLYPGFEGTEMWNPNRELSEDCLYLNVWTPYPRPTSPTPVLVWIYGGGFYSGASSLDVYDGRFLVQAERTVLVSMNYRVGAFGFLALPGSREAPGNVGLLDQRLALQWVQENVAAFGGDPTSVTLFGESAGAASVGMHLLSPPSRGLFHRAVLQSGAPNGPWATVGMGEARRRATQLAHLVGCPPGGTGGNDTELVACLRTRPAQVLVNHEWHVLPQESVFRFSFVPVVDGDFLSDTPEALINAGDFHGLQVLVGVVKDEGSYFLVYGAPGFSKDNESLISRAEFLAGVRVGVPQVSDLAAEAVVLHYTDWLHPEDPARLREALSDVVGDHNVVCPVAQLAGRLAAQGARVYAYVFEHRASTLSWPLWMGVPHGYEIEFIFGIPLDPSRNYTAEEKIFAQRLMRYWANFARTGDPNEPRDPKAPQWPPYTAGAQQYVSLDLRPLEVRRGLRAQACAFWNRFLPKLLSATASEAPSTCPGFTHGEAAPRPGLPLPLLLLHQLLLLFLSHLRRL
Quantity Kind: IC50 (µM)

[[record]]
compound = "CC[C@H]1CN2CC[C@]3(C(=O)Nc4ccccc43)[C@@H]2C[C@@H]1/C(=C\\OC)C(=O)OC"
units_of_measure = "µM"
reported_result = 66.3

[[record]]
compound = "OCc1ccc(O[C@@H]2O[C@H](CO)[C@@H](O)[C@H](O)[C@H]2O)cc1"
units_of_measure = "µM"
reported_result = 3.2

[[record]]
compound = "COC(=O)C1=CO[C@@H](O[C@@H]2O[C@H](CO)[C@@H](O)[C@H](O)[C@H]2O)[C@@H]2C(CO)=CC[C@H]12 [geniposide]"
units_of_measure = "µM"
reported_result = 8.3

[[record]]
compound = "O=C(O)[C@H]1O[C@@H](Oc2cc3oc(-c4ccccc4)cc(=O)c3c(O)c2O)[C@H](O)[C@@H](O)[C@@H]1O"
units_of_measure = "µM"
reported_result = 12.2


Sourced from paper PMC12648092
